This collection of values is drawn from the supplement of paper PMC8149375.

Here the recorded GI50 of drug is given for each entry.
# Tested on: A498
# Protocol: GI50 of drug in presence of dasatinib; higher = less potent
# Conditions used: treatment: drug + dasatinib (fixed dose, not stated); 5 days
Just the number please, in nM, no unit attached.

Examples from the recorded data:
O=C(NOCC(O)CO)c1cc(Br)c(F)c(F)c1Nc1ccc(I)cc1F (stereo not drawn) + Cc1nc(Nc2ncc(C(=O)Nc3c(C)cccc3Cl)s2)cc(N2CCN(CCO)CC2)n1 [dasatinib] | 1560
CNC(=O)c1cc(Oc2ccc(NC(=O)Nc3ccc(Cl)c(C(F)(F)F)c3)cc2)ccn1.Cc1ccc(S(=O)(=O)O)cc1 [Sorafenib (Nexavar)] + Cc1nc(Nc2ncc(C(=O)Nc3c(C)cccc3Cl)s2)cc(N2CCN(CCO)CC2)n1 [dasatinib] | 7050
CCN1CCN(c2ccc(Nc3cc(N(C)C(=O)Nc4c(Cl)c(OC)cc(OC)c4Cl)ncn3)cc2)CC1 [BGJ398 (NVP-BGJ398)] + Cc1nc(Nc2ncc(C(=O)Nc3c(C)cccc3Cl)s2)cc(N2CCN(CCO)CC2)n1 [dasatinib] | 9590
O=C(Nc1c[nH]nc1-c1nc2cc(CN3CCOCC3)ccc2[nH]1)NC1CC1 [AT9283] + Cc1nc(Nc2ncc(C(=O)Nc3c(C)cccc3Cl)s2)cc(N2CCN(CCO)CC2)n1 [dasatinib] | 633
COc1cc2ncnc(Nc3ccc(F)c(Cl)c3)c2cc1NC(=O)/C=C/CN1CCCCC1 + Cc1nc(Nc2ncc(C(=O)Nc3c(C)cccc3Cl)s2)cc(N2CCN(CCO)CC2)n1 [dasatinib] | 2350

Query string: Recorded GI50 of drug of CC[C@@H]1C(=O)N(C)c2cnc(Nc3ccc(C(=O)NC4CCN(C)CC4)cc3OC)nc2N1C1CCCC1 [BI 2536] + Cc1nc(Nc2ncc(C(=O)Nc3c(C)cccc3Cl)s2)cc(N2CCN(CCO)CC2)n1 [dasatinib] , please.
Result string: 38.4

Query string: # query: GI50 of drug of entry Cn1cc(-c2ccc3ncc(Cc4ccc5ncccc5c4)n3n2)cn1 [NVP-BVU972] + Cc1nc(Nc2ncc(C(=O)Nc3c(C)cccc3Cl)s2)cc(N2CCN(CCO)CC2)n1 [dasatinib]
Result string: 1440

Query string: For O=C(NOC[C@H](O)CO)c1ccc(F)c(F)c1Nc1ccc(I)cc1F + Cc1nc(Nc2ncc(C(=O)Nc3c(C)cccc3Cl)s2)cc(N2CCN(CCO)CC2)n1 [dasatinib] , what is its reported GI50 of drug?
Result string: 259

Query string: Name the recorded GI50 of drug for COc1cc2c(Oc3ccc(NC(=O)C4(C(=O)Nc5ccc(F)cc5)CC4)cc3F)ccnc2cc1OCCCN1CCOCC1 + Cc1nc(Nc2ncc(C(=O)Nc3c(C)cccc3Cl)s2)cc(N2CCN(CCO)CC2)n1 [dasatinib] .
Result string: 1430

====

# Tested on: CAKI-1
# Protocol: minimum viability across doses, drug alone, relative to DMSO (fraction); higher = less growth inhibition
# Conditions used: treatment: drug alone; 5 days
Quantity kind: minimum viability across doses
I only need the number, thanks.

A selection of reference data follows.
CCS(=O)(=O)Nc1ccc2c(c1)/C(=C(/Nc1ccc(CN3CCCCC3)cc1)c1ccccc1)C(=O)N2 [Hesperadin] | 0.0394
CCN(CCO)CCCOc1ccc2c(Nc3cc(CC(=O)Nc4cccc(F)c4)n[nH]3)ncnc2c1 [Barasertib (AZD1152-HQPA)] | 0.449
S=C(NCc1ccc2c(c1)OCO2)N1CCN(c2ncnc3c2oc2ccccc23)CC1 [Amuvatinib (MP-470)] | 0.832

Query string: Find minimum viability across doses (CAKI-1) for the entry CC1(COc2ccc3c(c2)ncn3-c2ccc3cccc(N4CCC(N)CC4)c3n2)COC1
Result string: 0.319

Query string: Query minimum viability across doses on CAKI-1 for CN(C)CC[C@H](CSc1ccccc1)Nc1ccc(S(=O)(=O)NC(=O)c2ccc(N3CCN(Cc4ccccc4-c4ccc(Cl)cc4)CC3)cc2)cc1[N+](=O)[O-] [ABT-737]
Result string: 0.952

Query string: Form field - read-out: minimum viability across doses; system: CAKI-1; submitted item: Oc1ccc(-c2nc(-c3ccc(F)cc3)c(-c3ccncc3)[nH]2)cc1
Result string: 0.637
